target.or.test.system: KRas G12S (Homo sapiens, UniProt P01116, G12S)
Construct: Biotinylated KRas (corresponding to amino acids 1-169, produced at Accelegan Inc.); biotin (biotinylated); purchased Accelegan Inc
Sequence (P01116 1-169 isoform P01116-2 G12S): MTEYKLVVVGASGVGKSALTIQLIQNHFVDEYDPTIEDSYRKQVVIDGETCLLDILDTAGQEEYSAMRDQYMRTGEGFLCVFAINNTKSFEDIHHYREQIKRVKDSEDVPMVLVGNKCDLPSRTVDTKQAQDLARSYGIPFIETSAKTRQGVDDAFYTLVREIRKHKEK
assay: KRas binding assay, TR-FRET displacement of Cy5 labelled tracer
study.conditions: 60-minute incubation at room temperature, 1% DMSO, pH 7.5
parameter: IC50 (nM)

See these solved cases before continuing.
molecule | IC50, nM
CCc1c(F)ccc2cc(O)cc(-c3ncc4c(N(C)CCC(C)C(=O)N(C)C(C)=O)nc(OC[C@@]56CCCN5C[C@H](F)C6)nc4c3F)c12 (stereo partly shown) [Example 284] | 5
CCc1c(F)ccc2cc(O)cc(-c3ncc4c(N5CCC(C(=O)n6cc(N(C)C)cn6)CC5)nc(OC[C@@]56CCCN5C[C@H](F)C6)nc4c3F)c12 [Example 64] | 40
Cc1ccn(C(=O)C2CCCCN(c3nc(OC[C@@]45CCCN4C[C@H](F)C5)nc4c(F)c(-c5ccc(F)c6sc(N)c(C#N)c56)c(Cl)cc34)CC2)n1 (stereo partly shown) [Example 137] | 10
CN1CC2(CCN(c3nc(OC[C@@]45CCCN4C[C@H](F)C5)nc4c(F)c(-c5ccc(F)c6sc(N)c(C#N)c56)c(Cl)cc34)CC2)C1=O [Example 303] | 3
CCc1c(F)ccc2cc(O)cc(-c3ncc4c(N5CCC(C(=O)n6ccc(N(C)C)n6)CC5)nc(OC[C@@]56CCCN5C[C@H](F)C6)nc4c3F)c12 [Example 58] | 221

(I) CCc1c(F)ccc2cc(O)cc(-c3ncc4c(NCCCC(=O)N(C)C(C)=O)nc(OC[C@@]56CCCN5C[C@H](F)C6)nc4c3F)c12 [Example 261]
(II) CCc1c(F)ccc2cc(O)cc(-c3ncc4c(N5C[C@H]6CC[C@@]6(C(=O)n6ccc(C)n6)C5)nc(OC[C@@]56CCCN5C[C@H](F)C6)nc4c3F)c12 [Example 105]
*Q* // which entry reports the smaller IC50, I or II ? // caller expects the label of the chosen entry
*A* I

(1) O=C1OCCN1C(=O)C1CCN(c2nc(OCC34CCCN3CCC4)nc3c(F)c(-c4cccc5cccc(F)c45)ncc23)CC1 [Example 2]
(2) CCc1c(F)ccc2cc(O)cc(-c3ncc4c(N5CC6C(CC(=O)n7ccc(C)n7)C6C5)nc(OC[C@@]56CCCN5C[C@H](F)C6)nc4c3F)c12 (stereo partly shown) [Example 120]
(3) CN(C)c1ccn(C(=O)C2CCCN(c3nc(OC[C@@]45CCCN4C[C@H](F)C5)nc4c(F)c(-c5ccc(F)c6sc(N)c(C#N)c56)c(Cl)cc34)CC2)n1 (stereo partly shown) [Example 188]
(4) CN(CCN(C)c1nc(OC[C@@]23CCCN2C[C@H](F)C3)nc2c(F)c(-c3ccc(F)c4sc(N)c(C#N)c34)c(Cl)cc12)C(=O)n1cncn1 [Example 232]
(5) CN(C=O)C(=O)CCCN(C)c1nc(OC[C@@]23CCCN2C[C@H](F)C3)nc2c(F)c(-c3ccc(F)c4sc(N)c(C#N)c34)c(Cl)cc12 [Example 235]
*Q* Order the records so the highest IC50 appears first and the lowest last. Output spec: a listing of the labels in the requested order.
*A* 1, 2, 3, 4, 5
(1: 72500 nM, 2: 186 nM, 3: 13 nM, 4: 7 nM, 5: 2 nM)

(1) CN(C(=O)C1CCN(c2nc(OC[C@@]34CCCN3C[C@H](F)C4)nc3c(F)c(-c4ccc(F)c5sc(N)c(C#N)c45)c(Cl)cc23)CC1)c1ccncn1 [Example 290]
(2) CCc1c(F)ccc2cc(O)cc(-c3ncc4c(N5CCC(C(=O)n6ccc(OC)n6)CC5)nc(OC[C@@]56CCCN5C[C@H](F)C6)nc4c3F)c12 [Example 61]
(3) Cc1ccn(C(=O)C2CCCN(c3nc(OC[C@@]45CCCN4C[C@H](F)C5)nc4c(F)c(-c5ccc(F)c6sc(N)c(C#N)c56)c(C(F)(F)F)cc34)CC2)n1 (stereo partly shown) [Example 272]
(4) Cc1ccn(C(=O)[C@@H]2C[C@H]2CNc2nc(OC[C@@]34CCCN3C[C@H](F)C4)nc3c(F)c(-c4ccc(F)c5sc(N)c(C#N)c45)c(Cl)cc23)n1 [Example 181]
*Q* Please produce an ascending ranking of these molecules based on IC50. Your task in answering is to list the labels in the requested order.
*A* 3, 4, 1, 2

(P) Cc1ccn(C(=O)C2CC3CN(c4nc(OC[C@@]56CCCN5C[C@H](F)C6)nc5c(F)c(-c6ccc(F)c7sc(N)c(C#N)c67)c(Cl)cc45)CC32)n1 (stereo partly shown) [Example 178]
(Q) CC(=O)N(C)C(=O)CCCNc1nc(OC[C@@]23CCCN2C[C@H](F)C3)nc2c(F)c(-c3ccc(F)c4sc(N)c(C#N)c34)c(Cl)cc12 [Example 258]
(R) CCc1c(F)ccc2cc(O)cc(N3CCc4c(nc(OC[C@@]56CCCN5C[C@H](F)C6)nc4N(C)CCCC(=O)n4ccc(C)n4)C3)c12 [Example 194]
*Q* Write the entries in order, lowest recorded IC50 first. Arrange the labels as the request states and list them.
*A* Q, R, P

(P) CN(C(=O)CCCN(C)c1nc(OC[C@@]23CCCN2C[C@H](F)C3)nc2c(F)c(-c3ccc(F)c4sc(N)c(C#N)c34)c(Cl)cc12)C(=O)c1cnn(C)c1 [Example 306]
(Q) N#Cc1ccc(OC(=O)[C@@H]2[C@@H]3CC[C@H]2CN(c2nc(OCC45CCCN4CCC5)nc4c(F)c(-c5cccc6cccc(F)c56)ncc24)C3)cc1 [Example 20]
*Q* # min-compare on IC50 between P and Q Lab log: write the label of the selected item as the result.
*A* P
